Reported Ki by item:
Target: Sphingosine kinase 2 (Mus musculus, UniProt Q9JIA7)
Sequence (Q9JIA7 whole entry): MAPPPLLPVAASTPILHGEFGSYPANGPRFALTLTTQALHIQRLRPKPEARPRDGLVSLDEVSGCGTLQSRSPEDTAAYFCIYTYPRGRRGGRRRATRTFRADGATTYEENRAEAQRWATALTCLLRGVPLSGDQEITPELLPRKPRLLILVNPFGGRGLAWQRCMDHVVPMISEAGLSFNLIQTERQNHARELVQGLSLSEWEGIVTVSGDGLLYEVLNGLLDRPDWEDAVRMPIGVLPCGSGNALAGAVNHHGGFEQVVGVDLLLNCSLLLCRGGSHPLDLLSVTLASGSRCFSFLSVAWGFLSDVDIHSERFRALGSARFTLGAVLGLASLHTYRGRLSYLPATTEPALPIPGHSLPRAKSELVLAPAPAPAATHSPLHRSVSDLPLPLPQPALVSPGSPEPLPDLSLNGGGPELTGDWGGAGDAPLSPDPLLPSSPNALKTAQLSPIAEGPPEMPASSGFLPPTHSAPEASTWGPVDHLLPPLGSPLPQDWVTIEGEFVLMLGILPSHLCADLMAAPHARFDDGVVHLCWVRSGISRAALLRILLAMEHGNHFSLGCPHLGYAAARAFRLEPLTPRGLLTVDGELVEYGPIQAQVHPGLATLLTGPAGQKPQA
Test: Inhibition of mouse recombinant SPHK2 expressed in baculovirus-infected Sf9 cells
readout kind: Ki

# molecule smiles, readout value
measured = [
    ("N=C(N)C1(C(=O)Nc2ccc(CCCCCCCCOCC3CCCCC3)cc2)CC1", "> 20 µM"),
    ("N=C(N)C1(C(=O)Nc2ccc(CCCCCCCOCC3CCCCC3)cc2)CC1", "7 µM"),
    ("N=C(N)C1(C(=O)Nc2ccc(CCCCCCCCc3ccccc3)cc2)CC1", "> 10 µM"),
    ("CCCCCCCCCCCCCCCCNC(=O)C1(C(=N)N)CC1", "> 100 µM"),
    ("N=C(N)C1(C(=O)Nc2ccc(CCCCCCOCC3CCCCC3)cc2)CC1", "12 µM"),
    ("N=C(N)C1(NC(=O)CCCCCCCCCCOCC2CCCCC2)CC1", "12 µM"),
    ("N=C(N)[C@@H]1CCCN1C(=O)c1ccc(-c2nc(-c3cccc(CCC4CCCCC4)c3)c[nH]2)cc1", "20 µM"),
    ("N=C(N)C1(C(=O)Nc2ccc(CCCCCCCOCc3ccccc3)cc2)CC1", "38 µM"),
    ("CCCCCCCCCCCCCCCCCCNC(=O)C1(C(=N)N)CC1", "> 100 µM"),
    ("CCCCCCCCCCCCCCNC(=O)C1(C(=N)N)CC1", "7.5 µM"),
    ("N=C(N)C1(C(=O)Nc2ccc(CCCCCCCCCc3ccccc3)cc2)CC1", "> 10 µM"),
]
